Just for reference, ChEMBL document CHEMBL1130548 is where these values come from.

Assay: Partition coefficient (logP)
Assay type: physicochemical
Conditions: octanol/water; read-out: logP
logP values, listed per item
// no unit, no text: just the number

Consider the following illustrative entries.
COc1cc(C(=O)N2CC[C@](CCN3CCC(C(=O)N4CCOCC4)(c4ccccc4)CC3)(c3ccc(Cl)c(Cl)c3)C2)cc(OC)c1OC.Cl; 4.3
COc1cc(C(=O)N2CC[C@](CCN3CCC(C(=O)N4CCN(C)CC4)(c4cccnc4)CC3)(c3ccc(Cl)c(Cl)c3)C2)cc(OC)c1OC.Cl; 3.2

Record COc1cc(C(=O)N2CC[C@](CCN3CCC(C(=O)N4CCN(C)CC4)(c4ccccc4)CC3)(c3ccc(Cl)c(Cl)c3)C2)cc(OC)c1OC.Cl . Reported logP: 4.7

---

Assay: The pKa1 value for the compound was determined by titrating in an aqueous solution (ISA).
Type: physicochemical
Settings: read-out: pKa1
measurement_label: pKa

Consider the following illustrative entries.
COc1cc(C(=O)N2CC[C@](CCN3CCC(C(=O)N4CCOCC4)(c4ccccc4)CC3)(c3ccc(Cl)c(Cl)c3)C2)cc(OC)c1OC.Cl; 7.51
COc1cc(C(=O)N2CC[C@](CCN3CCC(C(N)=O)(c4cccnc4)CC3)(c3ccc(Cl)c(Cl)c3)C2)cc(OC)c1OC.Cl; 7.6

Record COc1cc(C(=O)N2CC[C@](CCN3CCC(C(N)=O)(c4ccncc4)CC3)(c3ccc(Cl)c(Cl)c3)C2)cc(OC)c1OC.Cl . Reported pKa: 7.53

Record COc1cc(C(=O)N2CC[C@](CCN3CCC(C(N)=O)(c4ccccc4)CC3)(c3ccc(Cl)c(Cl)c3)C2)cc(OC)c1OC.Cl . Reported pKa: 7.64

Record COc1cc(C(=O)N2CC[C@](CCN3CCC(C(=O)N4CCN(C)CC4)(c4cccnc4)CC3)(c3ccc(Cl)c(Cl)c3)C2)cc(OC)c1OC.Cl . Reported pKa: 11.4

Record COc1cc(C(=O)N2CC[C@](CCN3CCC(C(=O)N4CCN(C)CC4)(c4ccccc4)CC3)(c3ccc(Cl)c(Cl)c3)C2)cc(OC)c1OC.Cl . Reported pKa: 7.92

---

Test: Partition coefficient (logD)
Assay type: physicochemical
Details: octanol/water; read-out: logD
logD values, listed per item

COc1cc(C(=O)N2CC[C@](CCN3CCC(C(=O)N4CCN(C)CC4)(c4ccccc4)CC3)(c3ccc(Cl)c(Cl)c3)C2)cc(OC)c1OC.Cl; 3.71
COc1cc(C(=O)N2CC[C@](CCN3CCC(C(=O)N4CCOCC4)(c4ccccc4)CC3)(c3ccc(Cl)c(Cl)c3)C2)cc(OC)c1OC.Cl; 3.02
COc1cc(C(=O)N2CC[C@](CCN3CCC(C(=O)N4CCN(C)CC4)(c4cccnc4)CC3)(c3ccc(Cl)c(Cl)c3)C2)cc(OC)c1OC.Cl; 2.41

Record COc1cc(C(=O)N2CC[C@](CCN3CCC(C(N)=O)(c4ccccc4)CC3)(c3ccc(Cl)c(Cl)c3)C2)cc(OC)c1OC.Cl . Reported logD: 3.02

---

Target or system Substance-P receptor (Cavia porcellus, UniProt P30547); recorded quantity pIC50.
Lab note: report pIC50 as minus log10 of the concentration in molar units, number only.

COc1cc(C(=O)N2CCC(CCN3CCC(C(N)=O)(c4ccncc4)CC3)(c3ccc(Cl)c(Cl)c3)C2)cc(OC)c1OC (configuration not stated); 8.31

Observed pIC50, Substance-P receptor (Cavia porcellus, UniProt P30547), COc1cc(C(=O)N2CC[C@](CCN3CCC(C(=O)N4CCN(C)CC4)(c4cccnc4)CC3)(c3ccc(Cl)c(Cl)c3)C2)cc(OC)c1OC.Cl : 8.61

Observed pIC50, Substance-P receptor (Cavia porcellus, UniProt P30547), COc1cc(C(=O)N2CCC(CCN3CCC(C(N)=O)(c4ccccc4)CC3)(c3ccc(F)c(F)c3)C2)cc(OC)c1OC (configuration not stated) : 8.01

Observed pIC50, Substance-P receptor (Cavia porcellus, UniProt P30547), COc1cc(C(=O)N2CCC(CCN3CCC(C(N)=O)(c4ccccc4)CC3)(c3ccc(F)cc3)C2)cc(OC)c1OC (configuration not stated) : 7.63

Observed pIC50, Substance-P receptor (Cavia porcellus, UniProt P30547), COc1cccc(C2(C(N)=O)CCN(CCC3(c4ccc(Cl)c(Cl)c4)CCN(C(=O)c4cc(OC)c(OC)c(OC)c4)C3)CC2)c1 (configuration not stated) : 8.07

Observed pIC50, Substance-P receptor (Cavia porcellus, UniProt P30547), COc1cc(C(=O)N2CCC(CCN3CCC(C(N)=O)(c4ccccc4)CC3)(c3ccc(Cl)c(Cl)c3)C2)cc(OC)c1OC (configuration not stated) : 8.23

Observed pIC50, Substance-P receptor (Cavia porcellus, UniProt P30547), COc1cc(C(=O)N2CC[C@](CCN3CCC(C(N)=O)(c4cccnc4)CC3)(c3ccc(Cl)c(Cl)c3)C2)cc(OC)c1OC.Cl : 8.40
